Values were extracted from the DeepSol protein solubility set.

# EXPERIMENT_NOTES: soluble on expression in E. coli; label from the status in PepcDB or PDB records
MEASURED_METRIC: soluble on expression in E. coli

BIOSEQUENCE: MGSDKIHHHHHHMDKLLYIAMSGAKQNMQALSINANNLANAKTTGFKADLAQARSMQAFGEGLPSRVFSMTERASQNFDSGSILHTGRSLDMAIEGEGFFAVQAEDGQEAYTRGGHFRLTETGALETNDGELVIGENGPITLPLPINNIQISRDGTIMVQPAGAPSSVQEEVGRIKLVNPDTRLVDKGNDGLFRAKNGGQLIADVNVNVLGGALESSNVNPINEMTDMIALQRQFEMQLKMMKTAEEIDSSASSLLRAF
MEASURED_METRIC: soluble on expression in E. coli
RESULT: not soluble
//
BIOSEQUENCE: MIAIIDYGMGNIRSVEQALKYIGAAYIVTSDKEEIFRSDGVILPGVGAFPKAMDILEEKDLVRVLQEIGRSRKPLLGICLGMQLLFEKSEELQDCNGLSLLPGVIRKLKVPYKIPHMGWNELKKEGEIALWNGVEDGSFVYYVHSYYADCPNEIVYGISDYGVKVPGFVAKGNIYGAQFHPEKSGDIGMQMLKNFKGVVETWKSSQLSI
MEASURED_METRIC: soluble on expression in E. coli
RESULT: soluble
//
BIOSEQUENCE: MKFGWIKTTGNDLEERMESVKDALESSIPGIIAEKEEISSVRELGNIKIVSDNLDADVVLINKGEDLEILKSAKLSGKETGVYVVINTKEDEVYATDVSKLDFVDYVVLEGSDWTIIPLENIIADLFSEEIKIVSVVTNVKDAEAAYEILEKGVDGVVLIPKDINEVKDFSKLIERMNSESVKLDYATVTKIEPVGSGDRVCIDTCSMMEMGEGMLIGSYSRGMFLVHSETVENPYVATRPFRVNAGPVHAYILCPENKTKYLSDLKAGDKVLVVNKNGETREAIIGRVKIEKRPLFLVEAEYNGENLRTILQNAETIRLVGEDGKPVSVVDLKVGTKVLIKPDENARHFGMAIKETIIEKLEHHHHHH
MEASURED_METRIC: soluble on expression in E. coli
RESULT: soluble
//
BIOSEQUENCE: MGSDKIHHHHHHMTDPFFLSDSGLLESYRAPKWLPGGNAQTIFPYFINLSPIISYRRERWEMDDGDFIDIDWLDGESDKPLVIMLHGLEGSSQSHYALSLMNLLQMLRWRGAVVHFRGCSGYSNRLPRAYHAGDSMEIDRMLRHIAHRNDSHEWNTPCYVVGVSLGGNALLKWLGEQGAQAARQIAGVVAVSVPLDLAAAGKVLDSGFNRVYTHHFLTTLKRKALEKNRQFPGLLNARAVAACRSLYEFDNLVTAPLHGFRDTDDYWRQSSSKPWLGSVQVPTLLINARNDPFLPESVLPQKSEVSSFVSLEFPQQGGHVGFIQGTFPGKLDWLPQRIIEFFSSLCGLDAIPG
MEASURED_METRIC: soluble on expression in E. coli
RESULT: not soluble
//
BIOSEQUENCE: MKGYIHVYTGNGKGKTTAALGLATRAACAGLKVFFGQFLKGRETSELKISEFLPNFEIVQYGTPEFIVGNPSEEQIKKAKSGLADAKERLVSEKYDVVVLDELCVAIHLGLFSKEEIEDLLNVKPENVELVITGRYAPEWLIEKADLVTEMKEVKHYYQKGVVARKGIEY
MEASURED_METRIC: soluble on expression in E. coli
RESULT: soluble
//
BIOSEQUENCE: MNCREGCGACCIAPSISTPIPGMPQGKPAGERCLHLSVEHLCGLFGLPERPAVCGAFLADPEVCGESREEAIRLIGWWEQVTAALEHHHHHH
MEASURED_METRIC: soluble on expression in E. coli
RESULT: not soluble
